Data origin: paper PMC5540273

# Test system: p38-delta
# Applied Conditions: concentration: 1 μM, replicates: in singlicate; n = 1;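 further: KINOMEscan kinase panel screen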
Kindly supply the reported %Inh values for the records listed here.
Give bare numbers, in %.

Example entries and their recorded answers appear below.
Give me measured %Inh, please, for this compound: Cl.Cl.NCC(NC(=O)c1cc(-c2ccccc2)c(-c2ccnc3[nH]ccc23)s1)c1ccccc1 (stereo not drawn)
47

Give me measured %Inh, please, for this compound: `Cl.c1ccc(-c2ccc3c(Nc4ccc5[nH]ccc5c4)ccnc3c2)nc1`
41

Proceed to the following item.
Give me measured %Inh, please, for this compound: NCCCC(NC(=O)c1cc(Br)c(-c2ccnc3[nH]ccc23)s1)c1ccccc1.O=C(O)C(F)(F)F.O=C(O)C(F)(F)F (stereo not drawn)
0

----------
Kindly supply the reported %Inh values for the records listed here.
# System: HIPK4
# Applied Conditions: concentration: 1 μM, replicates: in singlicate; n = 1
Numbers only, in %.

Give me measured %Inh, please, for this compound: `COc1cccc(C(=O)Nc2cccc(Oc3ccc4nc(NC(=O)C5CC5)cn4n3)c2)c1`
15

Below are 3 compounds. Give each one its %Inh.
1. c1ccc(Oc2ccc(Nc3ccnc4cc(-c5ccc(CNCCN6CCOCC6)o5)ccc34)cc2)nc1
2. COc1ccc(-c2coc3ccc(-c4nnc(SCc5ccc(OC)c(C(F)(F)F)c5)o4)cc23)cc1
3. CN(c1ccc(NC(=O)Nc2cc(C(F)(F)F)ccc2F)cc1)c1ccnc(Nc2ccc(S(N)(=O)=O)cc2)n1

0
0
99.1

Below are 4 compounds. Give each one its %Inh.
1. COCCOCCOc1cc2ncc3c4ccc(C#N)cc4[nH]c3c2cc1OC
2. Cl.NC(=O)c1cccc(Nc2nccc(Nc3ccc(Oc4c(Cl)cccc4Cl)c(Cl)c3)n2)c1
3. COc1cc2c(cc1OCCN1CCNCC1)ncc1c3ccc(C#N)cc3[nH]c21
4. COC(=O)Nc1nc2ccc(Oc3ccc(NC(=O)Nc4cc(C(F)(F)F)ccc4F)cc3)cc2n1C.Cl

1. 32
2. 4
3. 54
4. 69

Below are 4 compounds. Give each one its %Inh.
1. COc1cc(Nc2nccc(N3CCC(NC(=O)Nc4cccc(C(C)=O)c4)C3)n2)cc(OC)c1OC (centres unmarked)
2. O=C(NC1CCN(c2ccnc(Nc3ccc(F)cc3)n2)C1)c1cc2ccccc2s1 (centres unmarked)
3. Nc1ncc(-c2ccc3nccc(-c4ccncc4)c3c2)cc1S(=O)(=O)N1CCOCC1
4. Cl.Cl.NCC(NCc1ccc(-c2ccnc3[nH]ccc23)s1)c1ccccc1 (centres unmarked)

1. 0
2. 0
3. 76
4. 49

----------
# Test system: ADCK3
# Construct: gene CABC1
# Applied Conditions: concentration: 1 μM, replicates: in singlicate; n = 1
Label 1.0 when %Inh is strictly below 3%; at or above that, label 0.0.

Some solved entries appear below for comparison.
Please let me know if `Cc1occc1-c1ncc(OC[C@@H](N)Cc2c[nH]c3ccccc23)cc1-c1ccc2[nH]nc(C)c2c1.O=C(O)C(F)(F)F` shows %Inh below 3%.
0.0

Please let me know if `CN(C)S(=O)(=O)c1cc(-c2ccc3nccc(-c4cccc(S(N)(=O)=O)c4)c3c2)cnc1N` shows %Inh below 3%.
0.0

Please let me know if `Nc1ncc(-c2cccnc2)c2scc(-c3ccc4c(c3)CCN4C(=O)Cc3ccccc3)c12` shows %Inh below 3%.
0.0

Please let me know if COc1cc(Nc2nccc(N3CCC(NC(=O)Nc4cccc(C(C)=O)c4)C3)n2)cc(OC)c1OC (centres unmarked) shows %Inh below 3%.
1.0

Shifting focus to the compound that follows.
Please let me know if `COc1cc(Nc2ncc3c(C)nc(-c4cc5ccccc5[nH]4)n3n2)cc(OC)c1OC` shows %Inh below 3%.
0.0

----------
# Tested on: RIPK1
# Applied Conditions: concentration: 1 μM, replicates: in singlicate; n = 1
Cut-off 20% on %Inh, inclusive. At or above means Condition met; below means Condition not met.

Some solved entries appear below for comparison.
Please check the record `COC(=O)Nc1nc2ccc(Oc3ccc(NC(=O)Nc4cc(C(F)(F)F)ccc4F)cc3)cc2n1C.Cl` and state if its %Inh is at or above 20%.
Condition met

Please check the record `CNC(=O)c1ccccc1Nc1nc(Nc2ccc(N3CCOCC3)cc2)ncc1Cl.Cl` and state if its %Inh is at or above 20%.
Condition met

Please check the record Cl.Cl.NCC(C(=O)Nc1cc(Br)c(-c2ccnc3[nH]ccc23)s1)c1ccccc1 (centres unmarked) and state if its %Inh is at or above 20%.
Condition not met

Please check the record `COC(=O)Nc1nc2cc(Oc3ccc(NC(=O)Nc4cc(C(F)(F)F)ccc4F)cn3)ccc2[nH]1.Cl.Cl` and state if its %Inh is at or above 20%.
Condition met

Please check the record COc1ccc(Nc2nccc(N3CCC(NC(=O)Nc4cccc(OC)c4)C3)n2)cc1 (centres unmarked) and state if its %Inh is at or above 20%.
Condition not met

New cases:
Please check the record `Cl.NC(=O)c1cccc(Nc2nccc(Nc3ccc(Oc4c(Cl)cccc4Cl)c(Cl)c3)n2)c1` and state if its %Inh is at or above 20%.
Condition not met

Please check the record `CC(=O)Nc1nc2cnc(Nc3cc(NC(=O)c4cccc(C5(C#N)CC5)c4Cl)ccc3C)nc2s1` and state if its %Inh is at or above 20%.
Condition not met

Please check the record `O=C(Nc1cccc(Oc2ccc3nc(NC(=O)C4CC4)cn3n2)c1)c1ccccc1C(F)(F)F` and state if its %Inh is at or above 20%.
Condition not met

----------
Kindly supply the reported %Inh values for the records listed here.
# Tested on: TBK1
# Applied Conditions: concentration: 1 μM, replicates: in singlicate; n = 1
Numbers only, in %.

Example entries and their recorded answers appear below.
Give me measured %Inh, please, for this compound: `COC(=O)Nc1nc2ccc(Oc3ccc(NC(=O)Nc4cc(C(F)(F)F)ccc4F)cc3)cc2n1C.Cl`
0

Give me measured %Inh, please, for this compound: `COC(=O)Nc1nc2cc(Oc3ccc(NC(=O)Nc4cc(C(F)(F)F)ccc4F)cn3)ccc2[nH]1.Cl.Cl`
19

Give me measured %Inh, please, for this compound: `CC(C)c1nc(-c2cccc(NS(=O)(=O)c3c(F)cccc3F)c2F)c(-c2ccnc(Nc3ccc(N4CCOCC4)nc3)n2)s1`
51

Below are 2 compounds. Give each one its %Inh.
1. CCCCc1nn2ncccc2c1-c1ccnc(Nc2ccc(N3CCN(C)CC3)cc2)n1
2. CSc1cccc2c(-c3ccncn3)c(-c3ccc(F)cc3)nn12

1: 11; 2: 8

----------
# Test system: CDKL3
# Applied Conditions: concentration: 1 μM, replicates: in singlicate; n = 1
Measure Name: %Inh

Example entries and their recorded answers appear below.
Give me measured %Inh, please, for this molecule: `O=C(O)C(F)(F)F.O=C(O)C(F)(F)F.O=c1[nH]ccc2nc(N[C@@H]3CCCNC3)nc(Nc3ccc(S(=O)(=O)N4CCOCC4)cc3)c12`
0%

Give me measured %Inh, please, for this molecule: `COCCOCCOc1cc2ncc3c4ccc(C#N)cc4[nH]c3c2cc1OC`
0%

Give me measured %Inh, please, for this molecule: `COc1cccc(C(=O)Nc2cccc(Oc3ccc4nc(NC(=O)C5CC5)cn4n3)c2)c1`
7%

Below are 3 molecules. Give each one its %Inh.
1. C[C@@H]1CC[C@@H](C(=O)Nc2ccccc2)CN1c1cc(-c2ccc3c(N)n[nH]c3c2)nc(N)n1
2. COc1ccc(Nc2nccc(NCCNC(=O)c3cc4ccccc4s3)n2)cc1
3. Cl.NC(=O)c1cccc(Nc2nccc(Nc3ccc(Oc4c(Cl)cccc4Cl)c(Cl)c3)n2)c1

1: 0%; 2: 0%; 3: 0%

Below are 5 molecules. Give each one its %Inh.
1. Nc1ncc(-c2cccnc2)c2scc(-c3ccc4c(c3)CCN4C(=O)Cc3ccccc3)c12
2. Oc1cc(Nc2ccnc3cc(I)ccc23)ccc1F
3. c1ccc(-c2n[nH]cc2Nc2ccnc3ccccc23)nc1
4. Cc1ccc(C(=O)Nc2ccc(Nc3ccnc4cc(-c5nccs5)ccc34)cc2O)cc1.Cl
5. O=C(NC1CCN(c2ccnc(Nc3ccc(F)cc3)n2)C1)c1cc2ccccc2s1 (centres unmarked)

["0%", "0%", "0%", "2%", "0%"]

Below are 2 molecules. Give each one its %Inh.
1. O=C(Nc1cccc(Oc2ccc3nc(NC(=O)C4CC4)cn3n2)c1)c1ccccc1C(F)(F)F
2. CSc1cccc2c(-c3ccncn3)c(-c3ccc(F)cc3)nn12

["0%", "0%"]

----------
# Test system: LATS2
# Applied Conditions: concentration: 1 μM, replicates: in singlicate; n = 1
Cut-off 3% on %Inh, inclusive. At or above means Y; below means N.

Please check the record `CNC(=O)c1ccccc1Nc1nc(Nc2ccc(N3CCOCC3)cc2)ncc1Cl.Cl` and state if its %Inh is at or above 3%.
Y

Please check the record `Cc1ccc(C(=O)N2CC[C@@H](O)C2)cc1-n1c(C)cc(OCc2ccc(F)cc2F)c(Br)c1=O` and state if its %Inh is at or above 3%.
N

New cases:
Please check the record `Cc1occc1-c1ncc(OC[C@@H](N)Cc2c[nH]c3ccccc23)cc1-c1ccc2[nH]nc(C)c2c1.O=C(O)C(F)(F)F` and state if its %Inh is at or above 3%.
Y

Please check the record `CSc1cccc2c(-c3ccncn3)c(-c3ccc(F)cc3)nn12` and state if its %Inh is at or above 3%.
Y
